- test: Tmax in 12 hrs fasted C57BL/6 mouse at 1 mg/kg, po measured upto 24 hrs by LC-MS/MS analysis
- Assay type: ADME, organism-based
- stated-conditions: in vivo
quantity: Tmax (h)
Numeric answer only, unit h assumed.

Enquiry: Param item = "O=C(Nc1ccc2[nH]ncc2c1)N1CCN(c2cccc(Cl)c2Cl)CC1" ; retrieve measured Tmax.
Return: 1.33

* * *

- test: Apparent volume of distribution in 12 hrs fasted C57BL/6 mouse at 0.1 mg/kg, iv measured upto 24 hrs by LC-MS/MS analysis
- Format: ADME, organism-based
- stated-conditions: in vivo, read-out: Vz
quantity: Vd (L/kg)
Numeric answer only, unit L/kg assumed.

Enquiry: Param item = "O=C(Nc1ccc2[nH]ncc2c1)N1CCN(c2cccc(Cl)c2Cl)CC1" ; retrieve measured Vd.
Return: 2.15

* * *

- test: Metabolic stability in human liver microsomes assessed as half-life at […] measured upto 45 mins in the presence of NADPH by LC/MS analysis
- Format: ADME, Microsome
quantity: half-life (h)
Numeric answer only, unit h assumed.

Enquiry: Param item = "O=C(Nc1ccc2[nH]ncc2c1)N1CCN(c2cccc(Cl)c2Cl)CC1" ; retrieve measured half-life.
Return: 2.05

* * *

- test: Oral bioavailability in 12 hrs fasted C57BL/6 mouse at 1 mg/kg measured upto 24 hrs by LC-MS/MS analysis
- Type: ADME, organism-based
- stated-conditions: in vivo
quantity: bioavailability (%)
Numeric answer only, unit % assumed.

Enquiry: Param item = "O=C(Nc1ccc2[nH]ncc2c1)N1CCN(c2cccc(Cl)c2Cl)CC1" ; retrieve measured bioavailability.
Return: 88.4

* * *

- test: Clearance in 12 hrs fasted C57BL/6 mouse at 0.1 mg/kg, iv measured upto 24 hrs by LC-MS/MS analysis
- Type: ADME, organism-based
- stated-conditions: in vivo
quantity: clearance (mL/min/kg)
Numeric answer only, unit mL/min/kg assumed.

Enquiry: Param item = "O=C(Nc1ccc2[nH]ncc2c1)N1CCN(c2cccc(Cl)c2Cl)CC1" ; retrieve measured clearance.
Return: 12.9

* * *

- test: MRT (0 to last) in 12 hrs fasted C57BL/6 mouse at 0.1 mg/kg, iv measured upto 24 hrs by LC-MS/MS analysis
- Assay type: ADME, organism-based
- stated-conditions: in vivo
quantity: MRT last at 24 h (h)
Numeric answer only, unit h assumed.

Enquiry: Param item = "O=C(Nc1ccc2[nH]ncc2c1)N1CCN(c2cccc(Cl)c2Cl)CC1" ; retrieve measured MRT last at 24 h.
Return: 1.98

* * *

- test: AUC (0 to last) in 12 hrs fasted C57BL/6 mouse at 0.1 mg/kg, iv measured upto 24 hrs by LC-MS/MS analysis
- Assay type: ADME, organism-based
- Design: dose 0.1 mg/kg, time < 24 hrs, route iv
- stated-conditions: in vivo
quantity: AUC(0-t) at 24 h (ng·h/mL)
Numeric answer only, unit ng·h/mL assumed.

Enquiry: Param item = "O=C(Nc1ccc2[nH]ncc2c1)N1CCN(c2cccc(Cl)c2Cl)CC1" ; retrieve measured AUC(0-t) at 24 h.
Return: 117

* * *

- test: Metabolic stability in human liver microsomes assessed as intrinsic clearance at […] measured upto 45 mins in the presence of NADPH by LC/MS analysis
- Format: ADME, Microsome
- stated-conditions: read-out: CLH
quantity: CLint scaled (mL/min/kg)
Numeric answer only, unit mL/min/kg assumed.

Enquiry: Param item = "O=C(Nc1ccc2[nH]ncc2c1)N1CCN(c2cccc(Cl)c2Cl)CC1" ; retrieve measured CLint scaled.
Return: 14.2
